Test: Pharmacokinetic profile after oral administration in Beagle dogs
Assay type: in vivo
Conditions: dog, plasma, 10.6 mg/kg, Compound A in Water for Injection
REPORTED PROPERTY: bioavailability

[
  {
    "COMPOUND": "N#CC(c1ccnc(OCc2ccc(CN3CCOCC3)cc2)n1)c1nc2ccccc2s1 (stereo not shown)",
    "EXPERIMENTAL RESULT": "< 15%"
  }
]
